- Assay remarks: Vero cell cytotoxicity, cytotoxicity control for M. tuberculosis inhibitor project, purified and synthesized samples, set 3 (AID 504684)
- Measurement parameters: series mostly up to 100 µM
Entries with a potency or affinity are not part of this list. Active and inactive are the calls of the source. The rule behind the calls is not given here.
Readout kind: outcome

INSERT INTO assay_data (smiles_representation, readout_kind, val) VALUES
  ('Cc1c[nH]c(=S)[nH]c1=O', 'outcome', 'inactive'),
  ('CCOC(=O)COc1ccc(/C=C2\NC(=S)N(CC)C2=O)cc1', 'outcome', 'inactive'),
  ('Cc1nc(SCC(N)=O)[nH]c(=O)c1C', 'outcome', 'inactive'),
  ('Cc1cc(=O)[nH]c(SCC(=O)Nc2ccccc2)n1', 'outcome', 'inactive'),
  ('CCOC(=O)COn1c2c(c3c4no[n+]([O-])c4ccc31)CCCC2', 'outcome', 'inactive');
